The reported measurements were obtained from PubChem BioAssay (NCI).

# Test system: SNB-75 CNS
# assay_details: NCI-60 one-dose screen, 48 h (100 = growth as untreated, 0 = no growth, -100 = all killed)
# details: 10 µM unless noted
This is part of a sample that, as a whole, favours compounds with a hit. Of some 83,000 tested, about 20% had one in any assay.
Categories are defined by ranges of growth, namely low = under 60%, mid = from 60% up to 90%, high = 90% and over

input: Sort into band: CC(=O)ON1CCCC(P(=O)(OCOC(=O)C(C)(C)C)OCOC(=O)C(C)(C)C)C1=O (stereo unspecified)
output: low

input: Sort into band: CC(C)CSc1nc(Nc2ccccc2)c(C#N)c(-c2ccc(F)cc2)n1
output: low

input: Sort into band: CC[C@H](Nc1ncnc2nc[nH]c12)c1nc2cccc(CC(=O)c3ccc(C(=O)NO)cc3)c2c(=O)n1-c1ccccc1
output: low

input: Sort into band: COCCc1n(Cc2ccc3ccccc3c2)c2ccccc2[n+]1Cc1ccc2ccccc2c1
output: low

input: Sort into band: COc1ccc(-c2cc(C(=O)N3N=C(c4ccc(N)cc4)CC3c3ccc(OC)cc3)c3cc(OC)ccc3n2)cc1 (stereo unspecified)
output: mid

input: Sort into band: CCCS(=O)(=O)Nc1ccc(F)c(C(=O)c2c[nH]c3ncc(-c4ccc(OCCCC5CCCCN5)nc4)cc23)c1F (stereo unspecified)
output: low

input: Sort into band: COc1cc(/C=N/Nc2nc(-c3ccc(F)cc3)c(C#N)c(N3CCOCC3)n2)ccc1O
output: mid

input: Sort into band: CCC1S/C(=N\N=C(/C)c2ccc[nH]2)N(c2ccccc2)C1=O (stereo unspecified)
output: high

input: Sort into band: c1ccc(-c2cn3ccnc3c(-c3ccc4c(c3)ncn4C3CCCCC3)n2)cc1
output: high

input: Sort into band: CCCCc1ccc(N=Nc2ccc(OCC[N+](C)(C)C)cc2)cc1
output: low

input: Sort into band: CCCCCCCCCCCCCC1=NCC[N+]1(CCO)Cc1ccccc1 (stereo unspecified)
output: mid

input: Sort into band: COc1ccc(C(=O)c2cc(OC)c(OC)c(OC)c2)cc1OC(=O)C(Cl)(Cl)Cl
output: low

input: Sort into band: CC1CCCN(CCCCCOc2ccc3oc4ccc(Cl)cc4c(=O)c3c2)C1 (stereo unspecified)
output: mid

input: Sort into band: COC(=O)c1oc2c(C(=O)/C=C/c3ccc(OC)cc3)c(OCCCN3CCCCC3)ccc2c1C
output: low

input: Sort into band: COc1ccccc1Nc1nnc(-c2ccc(Cl)cc2)o1
output: low

input: Sort into band: NC(=O)CN1C(=O)c2ccccc2C1=O
output: mid

input: Sort into band: CC1(C)Cc2c(Br)c(Br)c(Br)c(OCC(O)CN3CCOCC3)c2O1 (stereo unspecified)
output: high

input: Sort into band: O=C(CCc1nnc2sc(OCc3ccccc3)nn12)c1nc2ccc([N+](=O)[O-])cc2[nH]1
output: high

input: Sort into band: COc1ccc2nc(-c3ccc(OC)c(OC)c3)cc(-c3nnc(SCC(=O)Nc4ccc(/C(C)=N\O)cc4)n3-c3ccccc3)c2c1
output: mid

input: Sort into band: COc1cc(NC(=O)Nc2cnc(Nc3ccc(N4CCOCC4)cc3)nc2Oc2ccc(C(F)(F)F)cc2)cc(OC)c1
output: mid

input: Sort into band: CCc1ccc(OCc2ccccc2C(=O)Nc2ccc3nc(C)cc(N)c3c2)cc1
output: low

input: Sort into band: [2H]c1nc(Nc2ncc3cc(C(=O)N(C)C)n(C4CCCC4)c3n2)c([2H])c([2H])c1N1C([2H])([2H])C([2H])([2H])NC([2H])([2H])C1([2H])[2H]
output: mid

input: Sort into band: CC(=O)c1c(OCC#N)ccc2c(C)cc(=O)oc12
output: high

input: Sort into band: CNc1cccc2c1C(=O)c1cccc(N)c1C2=O
output: mid

input: Sort into band: Cc1nc2sc(C(=O)Nc3cccc(Cl)c3C)c(N)c2cc1C(C)O (stereo unspecified)
output: low

input: Sort into band: CCC1=C[C@H]2CN(CCc3c([nH]c4ccccc34)[C@@](C(=O)OC)(c3cc4c(cc3OC)N(C)[C@H]3[C@@](O)(C(=O)OC)[C@H](OC(C)=O)[C@]5(CC)[C@@H]6C[C@@H]6CN6CC[C@]43[C@@H]65)C2)C1
output: low

input: Sort into band: C1=CC2=CC=C3C=CC=C4C(c5nc6c7ccccc7c7ccccc7c6[nH]5)=CC(=C1)C2C34 (stereo unspecified)
output: high

input: Sort into band: COc1ccc(/C=C(/C(=O)N2CCCC2)c2cc(OC)c(OC)c(OC)c2)cc1
output: low

input: Sort into band: COc1cc(C)ccc1Oc1nc(Nc2ccc(N3CCOCC3)cc2)ncc1N=Cc1cc(C(F)(F)F)cc(C(F)(F)F)c1
output: low

input: Sort into band: Cc1cccc(C)c1Nc1nnc(-c2ccc(F)cc2)o1
output: mid
